Origin of values: the supplement of paper PMC10266784

B1: library; numbered along this chain (parent)
chain: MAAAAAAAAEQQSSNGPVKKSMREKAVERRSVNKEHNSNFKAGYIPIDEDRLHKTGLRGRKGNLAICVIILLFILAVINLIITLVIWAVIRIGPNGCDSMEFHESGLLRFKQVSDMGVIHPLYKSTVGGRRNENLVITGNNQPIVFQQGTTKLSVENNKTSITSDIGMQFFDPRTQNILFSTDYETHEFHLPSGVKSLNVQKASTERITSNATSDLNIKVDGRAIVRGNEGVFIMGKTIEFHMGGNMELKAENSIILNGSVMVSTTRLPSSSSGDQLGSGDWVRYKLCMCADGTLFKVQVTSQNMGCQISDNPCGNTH

Variants of: B1
Experiment: SGCB cell-surface expression functional score (HA stain, bin4 vs bin1, normalised to synonymous) (log10 ratio); higher = more cell-surface SGCB (functional)
Reported SGCB cell-surface expression functional score (log10) by item:
API note: the answer field is a bare number with no unit suffix.

mutant_name=N33I observed_measurement=0.03
mutant_name=P17R observed_measurement=-0.12
mutant_name=N33E observed_measurement=0.11

In: Which measured SGCB cell-surface expression functional score (log10) value corresponds to "D165L" ?
Out: -0.58

In: One more variant: "R227Y"
Out: 0.15

In: One more variant: "S210W"
Out: -1.35

In: One more variant: "L108Q"
Out: -1.27

In: One more variant: "V283M"
Out: 0.74

In: One more variant: "Y285W"
Out: 0.09
